TESTED_SYSTEM: Nanoluciferase-BRD9 fusion protein (3×FLAG-NLuc-BRD9) in SYO-1 cells (Homo sapiens (Human))
Sequence (Q9H8M2 whole entry, the tested form may be a part): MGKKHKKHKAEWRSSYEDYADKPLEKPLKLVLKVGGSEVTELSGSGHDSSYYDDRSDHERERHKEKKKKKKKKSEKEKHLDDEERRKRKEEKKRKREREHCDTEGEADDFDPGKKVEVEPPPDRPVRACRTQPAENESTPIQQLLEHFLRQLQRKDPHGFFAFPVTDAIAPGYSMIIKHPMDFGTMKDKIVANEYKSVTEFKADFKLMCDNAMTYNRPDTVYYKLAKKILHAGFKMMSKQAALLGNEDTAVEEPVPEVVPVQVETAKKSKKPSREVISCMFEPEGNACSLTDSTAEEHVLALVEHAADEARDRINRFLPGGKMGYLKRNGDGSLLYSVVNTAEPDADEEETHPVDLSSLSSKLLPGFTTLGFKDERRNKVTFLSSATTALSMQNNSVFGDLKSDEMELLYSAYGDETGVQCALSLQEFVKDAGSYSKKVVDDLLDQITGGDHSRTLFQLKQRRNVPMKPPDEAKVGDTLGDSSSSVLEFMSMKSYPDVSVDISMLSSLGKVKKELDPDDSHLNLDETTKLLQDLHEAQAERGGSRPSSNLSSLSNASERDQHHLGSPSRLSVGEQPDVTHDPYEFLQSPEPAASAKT
EXPERIMENTAL_DETAILS: SYO1 BRD9 NanoLuc degradation assay
Assay type: cell-based
CONDITION_DESCRIPTION: SYO-1 cells expressing 3×FLAG-NLuc-BRD9, 6 hours incubation, top dose 1 μM
ASSAY_ENDPOINT: IC50

The cases that follow already have their IC50 on record.
COc1cc(-c2cn(C)c(=O)c3c2CCN(C(=O)NC2CC4(CCN(CCCOc5ccc6c(c5)C(=O)N(C5CCC(=O)NC5=O)C6=O)C4)C2)C3)cc(OC)c1CN(C)C (centres unmarked) : 100 to 1000 nM
COc1cc(-c2cn(C)c(=O)c3c2CCN(C(=O)NCCCCCCCCNc2cccc4nc(C)n(C5CCC(=O)NC5=O)c(=O)c24)C3)cc(OC)c1CN(C)C (centres unmarked) : 10 to 100 nM
COc1cc(-c2cn(C)c(=O)c3c2CCN(C(=O)NCCN2CCC4(CCN4c4ccc5c(c4)C(=O)N(C4CCC(=O)NC4=O)C5=O)C2)C3)cc(OC)c1CN(C)C (centres unmarked) : 100 to 1000 nM
COc1cc(-c2cn(C)c(=O)c3c2CCN(C(=O)NCC2CC4(CCN(CCCOc5ccc6c(c5)C(=O)N(C5CCC(=O)NC5=O)C6=O)CC4)C2)C3)cc(OC)c1CN(C)C (centres unmarked) : 100 to 1000 nM
COc1cc(-c2cn(C)c(=O)c3c2CCN(C(=O)NCC2CC24CCN(CCCOc2ccc5c(c2)C(=O)N(C2CCC(=O)NC2=O)C5=O)CC4)C3)cc(OC)c1CN(C)C (centres unmarked) : 100 to 1000 nM
CNC(=O)N1CCc2c(-c3cc(OC)c(CN4CCC(CCN(C)C5CCCN(c6ccc7c(c6)C(=O)N(C6CCC(=O)NC6=O)C7=O)C5)CC4)c(OC)c3)cn(C)c(=O)c2C1 (centres unmarked) : < 10 nM
CNC(=O)N1CCc2c(-c3cc(OC)c(CN4CCN(CCN5CCC(c6ccc7c(c6)C(=O)N(C6CCC(=O)NC6=O)C7=O)CC5)CC4)c(OC)c3)cn(C)c(=O)c2C1 (centres unmarked) : < 10 nM
CNC(=O)N1CCc2c(c(-c3cc(OC)c(CN(C)CC(=O)NCCOCCOc4cccc5c4C(=O)N(C4CCC(=O)NC4=O)C5=O)c(OC)c3)cn(C)c2=O)C1 (centres unmarked) : ≥ 1000 nM

Fill in IC50 for each of the 3 compounds listed.
1. COc1cc(-c2cn(C)c(=O)c3c2CCN(C(=O)NC2CC4(CCN(CCCOc5ccc6c(c5)C(=O)N(C5CCC(=O)NC5=O)C6=O)CC4)C2)C3)cc(OC)c1CN(C)C (centres unmarked)
2. COc1cc(-c2cn(C)c(=O)c3c2CCN(C(=O)NCCCCCOc2cccc4c2C(=O)N(C2CCC(=O)NC2=O)C4=O)C3)cc(OC)c1CN1CCC1 (centres unmarked)
3. CNC(=O)N1CCc2c(-c3cc(OC)c(C(C)N4CCC(CN5CCC6(CC5)CC(Oc5ccc7c(c5)C(=O)N(C5CCC(=O)NC5=O)C7=O)C6)CC4)c(OC)c3)cn(C)c(=O)c2C1 (centres unmarked)

["100 to 1000 nM", "10 to 100 nM", "< 10 nM"]
